These entries and their values trace back to the supplement of paper PMC9732359.

- assayProtocol: protein stability index of a GFP-peptide fusion (yeast GPS) (PSI 1-4); higher = more stable; sorted into four equal gates, so the index is relative within each strain
- statedConditions: san1∆
measuredProperty: protein stability index
Give a plain numeric answer without units written out.

Past entries and their recorded results:
sequenceContent	protein stability index
GVILMFAAILVLLVLPF [COB]	1.25
LKILKQVMEEKLDENNA [PUP2]	2.8
QQQGQIPQSQQVPQVRS [SNF5]	2.45
LALERMVPKRSTIITKA [YCS4]	1.16
AKICALLFFNFSHSLTT [NUT1]	1.4

// protein stability index value for ELGEQKCQELVTNIRRI [RRP46] : 1.55

// protein stability index value for VSKFYDKINQLSVVKYL [RPN9] : 1.31

// protein stability index value for GETRMKMLNEFVKKTSE [SMC2] : 2.91

----------
- assayProtocol: protein stability index of a GFP-peptide fusion (yeast GPS) (PSI 1-4); higher = more stable; sorted into four equal gates, so the index is relative within each strain
- statedConditions: san1∆
Classification by protein stability index | ranges: bin 1: < 2; bin 2: ≥ 2 and < 3; bin 3: ≥ 3

Categorize the following entry: NSQVFGVARIYASFNDT [RPS14B] bin 2

Categorize the following entry: YHSAGGRDKHALSLLYH [SSN3] bin 3

Categorize the following entry: NTHLGARNVQVHQEPYV [RPS0A] bin 2

Categorize the following entry: WALKSSLNSMTNAKLPN [RGR1] bin 3

----------
- assayProtocol: protein stability index of a GFP-peptide fusion (yeast GPS) (PSI 1-4); higher = more stable; sorted into four equal gates, so the index is relative within each strain
- statedConditions: ubr1∆
Classification by protein stability index | ranges: lower = under 2, middle = from 2 up to 3, upper = 3 and over

Solved entries:
sequenceContent	qualitativeLabel
KSKLDQDSTSENVKIIN [RPN2]	upper
KISFNLRLKLFLYEILS [SRB8]	lower
HECRLRDMTYSAPIYVD [RET1]	lower

Categorize the following entry: QQAQARLQQGRRLPMTM [SNF2] upper

Categorize the following entry: VPRLFDLVKPKNPKFSN [SMC4] middle

Categorize the following entry: IKLDIVVGQNQLIDQFE [SNF5] middle

Categorize the following entry: APNTLTNILISPLNTTT [YML103C/NUP188] lower

Categorize the following entry: APLVLLSALDHYERTQT [RPN8] middle

Categorize the following entry: KRKKEANEEPNTENVES [ITC1] middle

Categorize the following entry: RQTGPAKINEVYNNSKD [NSL1] middle

Categorize the following entry: KYNRYEKRHKNVPVHVS [RPS11A] lower

----------
- assayProtocol: protein stability index of a GFP-peptide fusion (yeast GPS) (PSI 1-4); higher = more stable; sorted into four equal gates, so the index is relative within each strain
- statedConditions: pdr5∆
measuredProperty: protein stability index
Give a plain numeric answer without units written out.

sequenceContent	protein stability index
DLESSSPELKADLRPLQ [RPS7B]	2.97
EVNSLLLQVNKTFCEDP [GRR1]	3.34
AKPFQVTKEYFQDVYDL [FAS1]	2.81

// protein stability index value for GIRWELISRLCPNSTGA [RPT1] : 2.25

// protein stability index value for EANWPLPVNIRRIIQNA [RPO21] : 1.37

// protein stability index value for DLKIEKLVLNISVGESG [RPL11A] : 2.66

// protein stability index value for TKKKSKFMTNSTAFVPT [ARP9] : 2.79

// protein stability index value for ISQKLTNVNVKIKDVQQ [SMC3] : 2.34
